Readings of melting point for the listed compounds

Study these solved cases before continuing.
Entry CCCC1=C(C#N)C(c2ccccc2Cl)c2c[nH]nc2N1C (stereo not shown) ; melting point = 170 to 171 °C

Entry N#CC1=C(C2CC2)Nc2n[nH]cc2C1c1ccccc1Cl (stereo not shown) ; melting point = > 250 °C

Entry CCCC1=C(C(=O)OCC)C(c2ccccc2Cl)c2cn(C(=O)OC)nc2N1 (stereo not shown) ; melting point = 141 to 143 °C

Pending compound:
Entry CCOC(=O)C1=C(C(F)(F)F)Nc2n[nH]cc2C1c1ccccc1C(F)(F)F (stereo not shown) ; melting point = 182 to 186 °C

====

Result type: melting point (°C)

Entry CCCC1=C(C(=O)OCC)C(c2c(F)cccc2F)c2c[nH]nc2N1 (stereo not shown) ; melting point = 185

A: CCCCOc1ccccc1C1C(C(=O)OCC)=C(CCC)Nc2n[nH]cc21 (stereo not shown)
B: CC(C)(C)C1=C(C#N)C(c2cccc(C#N)c2Br)c2c[nH]nc2N1 (stereo not shown)
Thinking about recorded melting point values, which is higher, A or B ? Which one? Tell me its label.
B
(B: 251 °C, A: 171 °C)
